meta.source: the nanobody polyreactivity screen of Harvey et al. (2022)

# assayOverview: yeast display, Sf9 membrane polyspecificity reagent, FACS + sequencing; frameworks hold sequencing errors
experimentalReadout: polyreactivity (PSR sort gate)

[
  {
    "sequence": "QVQLVESGGGLVQAGGSLRLSCAASGNTSAVYAMGWYRQAPGKERELVASITWSDGITYYADSVKGRFTISRDNAKNTVYLQMNSLKPEDTAVYYCAKSTLYSVEYDYWGEGTQVTVSS",
    "experimentalReadout": "polyreactivity (PSR sort gate)",
    "recordedValue": "low polyreactivity"
  },
  {
    "sequence": "QVQLVESGGGLVQAGGSLRLSCAASGRTFYVYAMGWYRQAPGKVSELVAAISASGGRTYYADSVKGGFTISRDNAKNTVYLQMNSLKPEDTAVYYCAAEGRRGGKDYDYWGQGTQVTVSS",
    "experimentalReadout": "polyreactivity (PSR sort gate)",
    "recordedValue": "high polyreactivity"
  },
  {
    "sequence": "QVQLVESGGGLVQAGGSLRLSCAASGSIFFLYAMGWYRQAPGKERELVAAISRDGRTNYADSVKGRFTISRDNAKYTVYLQMKSLKPEDTAVYYGAKDGNHPGAVGYGYWGQGTQVTVSS",
    "experimentalReadout": "polyreactivity (PSR sort gate)",
    "recordedValue": "low polyreactivity"
  },
  {
    "sequence": "QVQLVESGGGLVQAGGSLRLSCAASGRIFIRNDMGWYRQAPGKERELVAVITRSGGRTYYADSVKGRFTISRDNAKNTVYLQMNSLKPEDTAVYYCAKRQAFKQAPYEYWGQGTQVTVSS",
    "experimentalReadout": "polyreactivity (PSR sort gate)",
    "recordedValue": "low polyreactivity"
  },
  {
    "sequence": "QVQLVESGGGLVQAGGSLRLSCAASGFTFRENAMGWYRQAPGKERELVAAISKRGGTTYYADSVKGRFTISRDNAKNTVYLQMNSLKPEDTAVYYCAAESYSGPYAYEYWGQGTQVTVSS",
    "experimentalReadout": "polyreactivity (PSR sort gate)",
    "recordedValue": "high polyreactivity"
  }
]
